Molecular target: T1, recombinant wild type Hordeum vulgare limit dextrinase (wt HvLD) (Hordeum vulgare)
T1 chain: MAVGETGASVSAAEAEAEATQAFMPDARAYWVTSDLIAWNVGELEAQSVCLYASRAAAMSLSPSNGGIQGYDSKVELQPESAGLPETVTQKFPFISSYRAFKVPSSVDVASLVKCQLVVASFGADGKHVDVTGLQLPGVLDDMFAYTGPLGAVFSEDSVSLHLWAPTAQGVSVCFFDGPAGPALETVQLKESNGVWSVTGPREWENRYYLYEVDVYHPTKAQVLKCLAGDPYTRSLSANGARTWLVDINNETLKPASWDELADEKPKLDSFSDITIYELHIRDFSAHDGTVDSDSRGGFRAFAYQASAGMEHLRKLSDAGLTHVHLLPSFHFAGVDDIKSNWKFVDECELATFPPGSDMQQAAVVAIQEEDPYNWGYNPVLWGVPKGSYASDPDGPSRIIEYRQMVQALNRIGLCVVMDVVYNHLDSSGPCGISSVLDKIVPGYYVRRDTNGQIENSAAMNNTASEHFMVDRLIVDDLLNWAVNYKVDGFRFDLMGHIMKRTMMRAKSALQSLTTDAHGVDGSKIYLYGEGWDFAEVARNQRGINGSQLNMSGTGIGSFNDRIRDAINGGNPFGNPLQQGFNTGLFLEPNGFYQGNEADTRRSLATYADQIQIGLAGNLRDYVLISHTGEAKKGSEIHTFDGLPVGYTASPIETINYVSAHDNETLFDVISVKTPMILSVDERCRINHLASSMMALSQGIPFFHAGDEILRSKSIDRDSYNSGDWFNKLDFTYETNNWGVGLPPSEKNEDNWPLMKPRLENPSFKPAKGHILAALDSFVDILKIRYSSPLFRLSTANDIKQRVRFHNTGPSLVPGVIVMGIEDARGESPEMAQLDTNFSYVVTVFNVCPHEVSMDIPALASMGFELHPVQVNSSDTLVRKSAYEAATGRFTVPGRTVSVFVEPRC
Test: cell-based or functional assay
Experimental endpoint: IC50 (µM) of inhibition of HvLD activity (PullG6 assay, 1.5 µM HvLD)
Please give a number only; it is taken to be in µM.

Enquiry: Return reported IC50 (µM) of inhibition of HvLD activity (PullG6 assay, 1.5 µM HvLD); argument: HvLDI mutant P60L, recombinant (other) TLESVKDECQPGVDFPHNPLATCHTYVIKRVCGRGLSRPMLVKERCCRELAAVPDHCRCEALRILMDGVRTPEGRVVEGRLGDRRDCPREEQRAFAATLVTAAECNLSSVQEPGVRLVLLADG
Return: 13.2

Enquiry: Return reported IC50 (µM) of inhibition of HvLD activity (PullG6 assay, 1.5 µM HvLD); argument: HvLDI mutant P60S, recombinant (other) TLESVKDECQPGVDFPHNPLATCHTYVIKRVCGRGSSRPMLVKERCCRELAAVPDHCRCEALRILMDGVRTPEGRVVEGRLGDRRDCPREEQRAFAATLVTAAECNLSSVQEPGVRLVLLADG
Return: 10.1

Enquiry: Return reported IC50 (µM) of inhibition of HvLD activity (PullG6 assay, 1.5 µM HvLD); argument: HvLDI mutant V66M, recombinant (other) TLESVKDECQPGVDFPHNPLATCHTYVIKRVCGRGPSRPMLMKERCCRELAAVPDHCRCEALRILMDGVRTPEGRVVEGRLGDRRDCPREEQRAFAATLVTAAECNLSSVQEPGVRLVLLADG
Return: 15.3

Enquiry: Return reported IC50 (µM) of inhibition of HvLD activity (PullG6 assay, 1.5 µM HvLD); argument: wild type Hordeum vulgare limit dextrinase inhibitor (wt HvLDI), recombinant (other) TLESVKDECQPGVDFPHNPLATCHTYVIKRVCGRGPSRPMLVKERCCRELAAVPDHCRCEALRILMDGVRTPEGRVVEGRLGDRRDCPREEQRAFAATLVTAAECNLSSVQEPGVRLVLLADG
Return: 1.56

Enquiry: Return reported IC50 (µM) of inhibition of HvLD activity (PullG6 assay, 1.5 µM HvLD); argument: HvLDI mutant E68K, recombinant (other) TLESVKDECQPGVDFPHNPLATCHTYVIKRVCGRGPSRPMLVKKRCCRELAAVPDHCRCEALRILMDGVRTPEGRVVEGRLGDRRDCPREEQRAFAATLVTAAECNLSSVQEPGVRLVLLADG
Return: 7.1
